Reported growth values for a set of compounds
Test system: HCC-2998 colon
Experiment: NCI-60 one-dose screen, 48 h (100 = growth as untreated, 0 = no growth, -100 = all killed)
Settings: 10 µM unless noted
About 83,000 compounds went through this panel and 20% of them were active in at least one assay; those are over-represented in the sample as a whole.
Reply numerically in %, unit not repeated.

> print(dat)
                      smiles.representation  measured.target  measurement
1  COC(=O)C[C@@H]1CC=CC(=O)/C1=C(O)/C=C/c1ccccc1   HCC-2998 colon        -95.1
2  S=C(Nc1ccc(C2=NCCN2)cc1)Nc1ccc(C2=NCCN2)cc1   HCC-2998 colon          104
3                   C[n+]1ccc(C#N)c2ccccc21   HCC-2998 colon          114
4  O=[N+]([O-])c1ccc2c(c1)S(=O)c1cc([N+](=O)[O-])ccc1N2   HCC-2998 colon          104
5           Cc1cc(C(C)(C)C)cc(C)c1CC1=NCCN1   HCC-2998 colon         96.4
6  Oc1[nH]c2ccccc2c1/C=c1/ccc2c(c1)N=C(c1cc(F)cc(F)c1)N=2   HCC-2998 colon         81.1
7                      c1cnc2ccc3ncccc3c2c1   HCC-2998 colon          124
8                  CCCCCCCCSc1ncnc2c1ncn2CO   HCC-2998 colon          109

The value of growth measured for the compound COc1ccc(-c2cc(Cc3cccs3)c(=O)n(Cn3ccc4ccccc43)n2)cc1 turned out to be 107

The value of growth measured for the compound C[C@]12CC[C@@H]3c4ccc(O)c([N+](=O)[O-])c4CC[C@H]3[C@@H]1CC[C@@H]2NS(=O)(=O)c1ccc(C(F)(F)F)cc1 turned out to be 53.8

The value of growth measured for the compound Clc1ncn[nH]1 turned out to be 89.8

* * *

Tested on: SR leukemia
Assay: NCI-60 one-dose screen, 48 h (100 = growth as untreated, 0 = no growth, -100 = all killed)
Conditions: 10 µM unless noted
The panel holds about 83,000 compounds, 20% with a hit somewhere; the sample as a whole holds those more often.
Reported growth values for a set of compounds
Reply numerically in %, unit not repeated.

Would you please look over these solved cases?
> print(dat)
                                   compound  quantity.kind  measurement
1  CC(O)c1nc2c(c(=O)n(C)c(=O)n2C)n1C (centres undefined)         growth          125
2  Oc1[nH]c2ccc(Cl)cc2c1/C=c1/ccc2c(c1)N=C(c1ccc(C(F)(F)F)cc1)N=2         growth         25.9
3          CC(C)(C)c1cc(O)c(O)c(C(C)(C)C)c1         growth         11.2
4                  CCCCCCCCSc1ncnc2c1ncn2CO         growth          115

Field growth (SR leukemia), entry O=NC1CC=CCC1c1ccccc1 (centres undefined) : 101

Field growth (SR leukemia), entry O=C(Nc1ccc(Cl)cc1)c1cc2c(cc1O)[nH]c1ccccc12 : 1.22

Field growth (SR leukemia), entry N#CCCN(CCO)c1ccccc1 : 86.3

Field growth (SR leukemia), entry O=C(Nc1cccc(C(F)(F)F)c1)Nc1ccc(OCc2nnc(-c3ccc(Cl)cc3)o2)c(F)c1 : 66.3

Field growth (SR leukemia), entry O=C(NCCc1ccccc1)C1CCC(=O)N1Cc1ccc(Br)cc1 (centres undefined) : 102

Field growth (SR leukemia), entry C[n+]1c2ccccc2c(NC2CCNCC2)c2[nH]c3ccccc3c21 : -24.4
